Where these numbers come from: patent EP4729519A1

assay: Pharmacokinetic test in mice, plasma concentration by LC-MS/MS; assay type: in vivo, CD-1 male mice; settings: male, CD-1, mouse, 10 mg/kg, PO, 10mpk, read-out: AUC0-24h
measured quantity: AUC(0-t) (ng·h/mL)
Your answer should be a plain number; it is taken to be in ng·h/mL.

If you can, please state the reported AUC(0-t) value of "COc1ccc2c3c(cnc2n1)COC(=O)N3Cc1c(F)cc(S(N)(=O)=O)cc1F" .
47800

====

assay: Pharmacokinetic test in mice, plasma concentration by LC-MS/MS; assay type: in vivo, CD-1 male mice; conditions: male, CD-1, mouse, 10 mg/kg, PO, 10mpk
measured quantity: half-life
Reply with a number, then the unit it belongs to.

If you can, please state the reported half-life value of COc1ccc2c3c(cnc2n1)COC(=O)N3Cc1c(F)cc(S(N)(=O)=O)cc1F [Compound of Formula (I)] .
3.5 h

====

assay: Pharmacokinetic test in mice, plasma concentration by LC-MS/MS; format: in vivo, CD-1 male mice; details: male, CD-1, mouse, 2 mg/kg, IV, 2mpk
measured quantity: clearance
Reply with a number, then the unit it belongs to.

If you can, please state the reported clearance value of COc1ccc2c3c(cnc2n1)COC(=O)N3Cc1c(F)cc(S(N)(=O)=O)cc1F [Compound of Formula (I)] .
3.2 mL/min/kg

====

assay: Pharmacokinetic test in mice, plasma concentration by LC-MS/MS; assay type: in vivo, CD-1 male mice; details: male, CD-1, mouse, 10 mg/kg, PO, 10mpk
measured quantity: Tmax (h)
Your answer should be a plain number; it is taken to be in h.

If you can, please state the reported Tmax value of COc1ccc2c3c(cnc2n1)COC(=O)N3Cc1c(F)cc(S(N)(=O)=O)cc1F [Compound of Formula (I)] .
2

====

experiment: Pharmacokinetic test in mice, plasma concentration by LC-MS/MS; assay type: in vivo, CD-1 male mice; details: male, CD-1, mouse, 2 mg/kg, IV, 2mpk
measured quantity: half-life (h)
Your answer should be a plain number; it is taken to be in h.

If you can, please state the reported half-life value of "COc1ccc2c3c(cnc2n1)COC(=O)N3Cc1c(F)cc(S(N)(=O)=O)cc1F" .
5.35

====

assay: Pharmacokinetic test in mice, plasma concentration by LC-MS/MS; assay type: in vivo, CD-1 male mice; conditions: male, CD-1, mouse, 2 mg/kg, IV, 2mpk, read-out: AUC0-24h
measured quantity: AUC(0-t) (ng·h/mL)
Your answer should be a plain number; it is taken to be in ng·h/mL.

If you can, please state the reported AUC(0-t) value of "COc1ccc2c3c(cnc2n1)COC(=O)N3Cc1c(F)cc(S(N)(=O)=O)cc1F" .
10000
